# MEASUREMENT NOTES: AUC (0 to 24 hrs) in human HCT-116 cells xenografted in BomTac:NMRI-Foxn1nu mouse at 25 mg/kg, iv administered twice a week upto 6 weeks by HPLC-MS/MS analysis
# Type: ADME, organism-based
# CONDITION NOTES: in vivo, 1008 h

{"MOLECULE": "CC[C@@H]1C(=O)N(C)c2cnc(Nc3ccc(C(=O)N[C@H]4CC[C@H](N5CCN(CC6CC6)CC5)CC4)cc3OC)nc2N1C(C)C [VOLASERTIB]", "AUC": "75 µM·h"}

====

# MEASUREMENT NOTES: Half life in Wistar rat at 10 mg/kg, iv by HPLC-MS/MS analysis
# Assay type: ADME, organism-based
# CONDITION NOTES: in vivo

{"COMPOUND SMILES": "CC[C@@H]1C(=O)N(C)c2cnc(Nc3ccc(C(=O)N[C@H]4CC[C@H](N5CCN(CC6CC6)CC5)CC4)cc3OC)nc2N1C(C)C", "half-life / h": 54}
